Test system: U2OS
Assay: mean HPG incorporation (global translation) relative to DMSO (% of DMSO); higher = more protein synthesis
Conditions: 1 µM; 24 h
Counter-ions that a name gives are not always drawn.
experimentalEndpoint: mean HPG incorporation

[
  {
    "compound": "CCOc1cc(C(=O)Nc2ccc(Cl)c(-c3nc4ccccc4[nH]3)c2)cc(OCC)c1OCC",
    "experimentalEndpoint": "mean HPG incorporation",
    "resultNumber": 97.5
  },
  {
    "compound": "Cc1cc(CS(=O)(=O)c2ccccc2)cc(OCc2ccc(CN3CCC[C@@H]3CO)cc2)c1",
    "experimentalEndpoint": "mean HPG incorporation",
    "resultNumber": 97.1
  },
  {
    "compound": "COc1cc(NC(=O)c2ccccn2)ccc1Cl",
    "experimentalEndpoint": "mean HPG incorporation",
    "resultNumber": 106
  },
  {
    "compound": "Cc1c(CN2CCN(C(=O)[C@H](C)O)CC2)sc2c(N3CCOCC3)nc(-c3cnc(N)nc3)nc12",
    "experimentalEndpoint": "mean HPG incorporation",
    "resultNumber": 44.1
  },
  {
    "compound": "O=c1cc(N2CCOCC2)oc2c(-c3cccc4c3sc3ccccc34)cccc12",
    "experimentalEndpoint": "mean HPG incorporation",
    "resultNumber": 66.7
  },
  {
    "compound": "Cc1c(C)c2c(c(C)c1O)CC[C@](C)(CN1CCN(c3cc(N4CCCC4)nc(N4CCCC4)n3)CC1)O2",
    "experimentalEndpoint": "mean HPG incorporation",
    "resultNumber": 90.2
  },
  {
    "compound": "Nc1ccc(-c2cccc3c(=O)cc(N4CCOCC4)oc23)cc1",
    "experimentalEndpoint": "mean HPG incorporation",
    "resultNumber": 73.5
  },
  {
    "compound": "CC(=O)O[C@@H]1C[C@H]2C(C)(C)C(=O)C=C[C@]2(C)[C@H]2CC[C@@]3(C)[C@H](c4ccoc4)OC(=O)[C@H]4O[C@]43[C@@]21C",
    "experimentalEndpoint": "mean HPG incorporation",
    "resultNumber": 91.2
  },
  {
    "compound": "Cc1c(-c2ccc(O)cc2)n(Cc2ccc(OCCN3CCCCCC3)cc2)c2ccc(O)cc12 [Bazedoxifene HCl]",
    "experimentalEndpoint": "mean HPG incorporation",
    "resultNumber": 84.1
  },
  {
    "compound": "COc1ccccc1N1CCN(CCN2C(=O)c3ccccc3C(C)(C)C2=O)CC1 [ARC 239 dihydrochloride]",
    "experimentalEndpoint": "mean HPG incorporation",
    "resultNumber": 102
  },
  {
    "compound": "O=[N+]([O-])c1ccccc1S(=O)(=O)NCC1CCC(CNCC2CCc3ccccc3C2)CC1 (stereo unspecified) [NTNCB hydrochloride]",
    "experimentalEndpoint": "mean HPG incorporation",
    "resultNumber": 98
  },
  {
    "compound": "CCCc1cc(C)[nH]c(=O)c1CNC(=O)c1cc(-c2ccc(N3CCN(C(C)C)CC3)nc2)cc2c1cnn2C(C)C",
    "experimentalEndpoint": "mean HPG incorporation",
    "resultNumber": 111
  },
  {
    "compound": "CNC(=O)c1cccc(-c2ccc3c(N4CCOC[C@@H]4C)nc(N4CCOC[C@@H]4C)nc3n2)c1",
    "experimentalEndpoint": "mean HPG incorporation",
    "resultNumber": 44.3
  },
  {
    "compound": "Cc1cn(-c2cc(NC(=O)c3ccc(C)c(Nc4nccc(-c5cccnc5)n4)c3)cc(C(F)(F)F)c2)cn1",
    "experimentalEndpoint": "mean HPG incorporation",
    "resultNumber": 95
  },
  {
    "compound": "CC(C)n1nc(-c2ccc3oc(N)nc3c2)c2c(N)ncnc21",
    "experimentalEndpoint": "mean HPG incorporation",
    "resultNumber": 32.9
  },
  {
    "compound": "COc1cc(C)c(/C=C/C(C)=C/C=C/C(C)=C/C(=O)O)c(C)c1C",
    "experimentalEndpoint": "mean HPG incorporation",
    "resultNumber": 99.8
  }
]
